Could you please report measured TGI for the items listed next?
Test system: DU-145 prostate
testMethodNotes: NCI tumour cell line growth inhibition, 48 h
# unit: µM | format: bare number

Prompt line: Recorded TGI for CN(C)CCCn1c2c(c3ccncc3c1=O)C(=O)c1ccccc1-2 with DU-145 prostate, please?
Response line: 10.6

Prompt line: Write down the reported TGI of CCN(CC)CCC(CNc1c2ccc(Cl)cc2nc2ccc(OC)cc12)c1ccccc1 (stereo unspecified) , test system: DU-145 prostate.
Response line: 6.09

Prompt line: # get_value(readout= TGI, system= DU-145 prostate) for COc1cc2c(cc1C)NC(=O)/C2=C/c1c(Cl)n(C)c2ccccc12
Response line: 23.6

Prompt line: Tell me reported TGI for O=C1c2cccc3cc4ccccc4c(c23)C(=O)N1CCCNCCNCCCN1C(=O)c2cccc3cc4ccccc4c(c23)C1=O , tested with DU-145 prostate.
Response line: 2.04

// provenance: PubChem BioAssay (NCI)
